The reported numbers originate from ChEMBL document CHEMBL5053556.

Assay: physchem
Conditions: aqueous
Description: Aqueous solubility of compound by UPLC method
Value Kind: solubility (µg/mL)

# example entries with known answers
> print(dat)
                                   compound  value.kind  reported
1  C/C(O)=C(\C#N)C(=O)Nc1cc(O[C@@H](C)C(F)(F)F)c(C(=O)Nc2c(Cl)cccc2Br)cc1F  solubility      2900
2  C/C(O)=C(\C#N)C(=O)Nc1cc(O[C@@H](C)C(F)(F)F)c(C(=O)Nc2c(Cl)cccc2Cl)cc1F  solubility      2400
3  C/C(O)=C(\C#N)C(=O)Nc1cc(O[C@@H](C)C(F)(F)F)c(C(=O)Nc2c(F)cccc2Br)cc1F  solubility      1700

(1) C/C(O)=C(\C#N)C(=O)Nc1cc(O[C@@H](C)C(F)(F)F)c(C(=O)Nc2c(Br)cccc2Br)cc1F
(2) C/C(O)=C(\C#N)C(=O)Nc1cc(OC(C)C)c(C(=O)Nc2c(F)cccc2Cl)cc1F
query: Which of the two gives a bigger number for solubility: 1 or 2 ? Please reply using the label of the selected record.
result: 1
(1: 2100 µg/mL, 2: 465 µg/mL)

* * *

Experiment: Plasma protein binding in rat at 0.1 uM incubated for 5 hrs by LC-MS analysis
Assay type: ADME, cell-free
Details: read-out: PPB (converted)
Below: a set of entries, each annotated with reported fraction unbound at 5 h, 0.1 µM.
Write the number on its own, no unit after it.

> print(dat)
                                   compound                       value.kind  reported
1  C/C(O)=C(\C#N)C(=O)Nc1cc(O[C@@H](C)C(F)(F)F)c(C(=O)Nc2c(F)cccc2Cl)cc1F  fraction unbound at 5 h, 0.1 µM     0.278

Now examine the next entry.
query: So what's the measured fraction unbound at 5 h, 0.1 µM for this one? C/C(O)=C(\C#N)C(=O)Nc1cc(O[C@@H](C)C(F)(F)F)c(C(=O)Nc2c(F)cccc2F)cc1F
result: 0.099

* * *

Target: Dihydroorotate dehydrogenase (quinone), mitochondrial (Homo sapiens, UniProt Q02127)
Sequence (Q02127 whole entry): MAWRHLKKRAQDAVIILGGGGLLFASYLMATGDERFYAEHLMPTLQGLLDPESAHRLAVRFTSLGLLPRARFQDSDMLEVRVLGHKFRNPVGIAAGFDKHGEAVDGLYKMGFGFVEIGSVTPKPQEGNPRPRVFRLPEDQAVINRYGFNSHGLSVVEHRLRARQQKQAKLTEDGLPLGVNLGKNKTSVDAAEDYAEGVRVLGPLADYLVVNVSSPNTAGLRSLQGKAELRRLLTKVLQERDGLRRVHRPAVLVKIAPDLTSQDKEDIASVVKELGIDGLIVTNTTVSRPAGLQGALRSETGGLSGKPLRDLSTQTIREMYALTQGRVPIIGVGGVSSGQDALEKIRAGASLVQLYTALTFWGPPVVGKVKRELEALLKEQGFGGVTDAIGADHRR
Conditions: dose 100.0 nM, time 30.0 min
Value Kind: inhibition (%)

# example entries with known answers
> print(dat)
                                   compound  reported
1  C/C(O)=C(\C#N)C(=O)Nc1cc(O[C@@H](C)C(F)(F)F)c(C(=O)Nc2c(Br)cccc2Br)cc1F      96.9
2  C/C(O)=C(\C#N)C(=O)Nc1cc(OC(C)C)c(C(=O)Nc2c(Cl)cccc2Cl)cc1F      89.4
3  CCOc1cc(NC(=O)/C(C#N)=C(/C)O)c(F)cc1C(=O)Nc1c(Cl)cccc1Cl      85.8
4  C/C(O)=C(\C#N)C(=O)Nc1cc(O[C@@H](C)C(F)(F)F)c(C(=O)Nc2c(F)cccc2F)cc1F      88.9
5  C/C(O)=C(\C#N)C(=O)Nc1cc(O[C@@H](C)C(F)(F)F)c(C(=O)Nc2c(Cl)cccc2Br)cc1F      94.4

(a) C/C(O)=C(\C#N)C(=O)Nc1cc(O[C@@H](C)C(F)(F)F)c(C(=O)Nc2c(F)cccc2Br)cc1F
(b) C/C(O)=C(\C#N)C(=O)Nc1ccc(C(=O)Nc2c(F)cccc2F)c(OC(C)C)c1
(c) C/C(O)=C(\C#N)C(=O)Nc1cc(OC(C)C)c(C(=O)Nc2ccc(F)c(Cl)c2)cc1F
query: Highest inhibition first, then in falling order down to the smallest. Form entry: ranked labels (order as requested).
result: a, b, c
(a: 93.1%, b: 53.4%, c: 4.9%)

* * *

Below: a set of entries, each annotated with reported Cmax.
Assay: Cmax in Sprague-Dawley rat at 15 mg/kg, po measured after 48 hrs by LC-MS analysis
Type: ADME, organism-based
Set-up: dose 15 mg/kg, time 48 hrs, route po
Conditions: in vivo
Respond numerically; units are ng/mL and should not be typed.

> print(dat)
                                   compound  reported
1  C/C(O)=C(\C#N)C(=O)Nc1cc(O[C@@H](C)C(F)(F)F)c(C(=O)Nc2c(F)cccc2Cl)cc1F      1320

Now examine the next entry.
query: So what's the measured Cmax for this one? C/C(O)=C(\C#N)C(=O)Nc1cc(O[C@@H](C)C(F)(F)F)c(C(=O)Nc2c(F)cccc2F)cc1F
result: 1270

* * *

Assay: in vitro
Details: human, Caco-2
Description: Apparent permeability across apical to basolateral side in human Caco-2 cells incubated for 90 mins by LC-MS analysis
Value Kind: Papp A→B at 1.5 h (×10⁻⁶ cm/s)
Respond numerically; units are ×10⁻⁶ cm/s and should not be typed.

query: So what's the measured Papp A→B at 1.5 h for this one? C/C(O)=C(\C#N)C(=O)Nc1cc(O[C@@H](C)C(F)(F)F)c(C(=O)Nc2c(F)cccc2Cl)cc1F
result: 0.29

* * *

Experiment: AUC(0 to t) in Sprague-Dawley rat at 15 mg/kg, po measured after 48 hrs by LC-MS analysis
Assay type: ADME, organism-based
Parameters: dose 15 mg/kg, time 48 hrs, route po
Conditions: in vivo
Value Kind: AUC(0-t) at 48 h (ng·h/mL)
Respond numerically; units are ng·h/mL and should not be typed.

> print(dat)
                                   compound  reported
1  C/C(O)=C(\C#N)C(=O)Nc1cc(O[C@@H](C)C(F)(F)F)c(C(=O)Nc2c(F)cccc2F)cc1F     29500

Now examine the next entry.
query: So what's the measured AUC(0-t) at 48 h for this one? C/C(O)=C(\C#N)C(=O)Nc1cc(O[C@@H](C)C(F)(F)F)c(C(=O)Nc2c(F)cccc2Cl)cc1F
result: 21100

* * *

Assay: Half life in Sprague-Dawley rat at 15 mg/kg, po measured after 48 hrs by LC-MS analysis
Type: ADME, organism-based
Settings: in vivo
Value Kind: half-life (h)
Respond numerically; units are h and should not be typed.

> print(dat)
                                   compound  value.kind  unit.name  reported
1  C/C(O)=C(\C#N)C(=O)Nc1cc(O[C@@H](C)C(F)(F)F)c(C(=O)Nc2c(F)cccc2F)cc1F   half-life          h      10.1

query: So what's the measured half-life for this one? C/C(O)=C(\C#N)C(=O)Nc1cc(O[C@@H](C)C(F)(F)F)c(C(=O)Nc2c(F)cccc2Cl)cc1F
result: 8.7

* * *

Assay: Microsomal stability in human liver microsomes assessed as half life at 1 uM measured upto 120 mins in presence of NADPH by LC-MS analysis
Type: ADME, Microsome
Value Kind: half-life at 1 µM (h)
Respond numerically; units are h and should not be typed.

> print(dat)
                                   compound         value.kind  reported
1  C/C(O)=C(\C#N)C(=O)Nc1cc(O[C@@H](C)C(F)(F)F)c(C(=O)Nc2c(F)cccc2F)cc1F  half-life at 1 µM      23.1

Now examine the next entry.
query: So what's the measured half-life at 1 µM for this one? C/C(O)=C(\C#N)C(=O)Nc1cc(O[C@@H](C)C(F)(F)F)c(C(=O)Nc2c(F)cccc2Cl)cc1F
result: 2.31

* * *

Target: Dihydroorotate dehydrogenase (quinone), mitochondrial (Homo sapiens)
Settings: dose 100.0 nM, time 30.0 min
Value Kind: inhibition (%)

# example entries with known answers
> print(dat)
                                   compound                                    system  value.kind  reported
1  CCOc1cc(NC(=O)/C(C#N)=C(/C)O)c(F)cc1C(=O)Nc1c(F)cccc1Br  Dihydroorotate dehydrogenase (quinone), mitochondrial (Homo sapiens)  inhibition      72.7
2  COc1cc(NC(=O)/C(C#N)=C(/C)O)c(F)cc1C(=O)Nc1c(F)cccc1F  Dihydroorotate dehydrogenase (quinone), mitochondrial (Homo sapiens)  inhibition      27.4
3  C/C(O)=C(\C#N)C(=O)Nc1cc(OC(C)C)c(C(=O)Nc2ccccc2Br)cc1F  Dihydroorotate dehydrogenase (quinone), mitochondrial (Homo sapiens)  inhibition      68.5
4  C/C(O)=C(\C#N)C(=O)Nc1cc(OC(C)C)c(C(=O)Nc2c(F)cccc2Cl)cc1F  Dihydroorotate dehydrogenase (quinone), mitochondrial (Homo sapiens)  inhibition      70.7
5  COc1cc(NC(=O)/C(C#N)=C(/C)O)c(F)cc1C(=O)Nc1c(F)cccc1Br  Dihydroorotate dehydrogenase (quinone), mitochondrial (Homo sapiens)  inhibition      78.5
6  CCOc1cc(NC(=O)/C(C#N)=C(/C)O)c(F)cc1C(=O)Nc1c(F)cccc1Cl  Dihydroorotate dehydrogenase (quinone), mitochondrial (Homo sapiens)  inhibition      63.8

(a) C/C(O)=C(\C#N)C(=O)Nc1cc(OC(C)C)c(C(=O)Nc2ccccc2Cl)cc1F
(b) C/C(O)=C(\C#N)C(=O)Nc1cc(OC(C)C)c(C(=O)Nc2cccc(F)c2)cc1F
(c) C/C(O)=C(\C#N)C(=O)Nc1cc(OC(C)C)c(C(=O)Nc2ccc(F)cc2)cc1F
query: Arrange the 3 compounds by rising inhibition, starting with the smallest. Form entry: ranked labels (order as requested).
result: c, b, a
(c: 7.5%, b: 22.1%, a: 62.7%)
